z-score values by entry
- test description: Plasmodium falciparum growth inhibition, primary screen, strain 3D7, DAPI fluorescence, 100 nL (AID 1184);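 also: parasites grown inside human red blood cells in medium with human serum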
- experimental setup: P. falciparum 3D7 growth, 3 d, higher = more signal

# molecule, z-score
records = [
    ("O=C(C=Cc1ccc2c(c1)OCO2)c1ccc(F)cc1", -0.533),
    ("C[C@@H](c1ccccc1)N1C(=O)[C@H]2[C@H]3[C@H](O)[C@H](O)CC(=NOCc4ccccc4)[C@H]3CC[C@H]2C1=O", 0.754),
    ("Cc1ccc(S(=O)(=O)N[C@H]2COC(=O)CC=C[C@H](C)[C@@H](NS(=O)(=O)c3ccc(C)cc3)COC(=O)CC=C[C@@H]2C)cc1", -0.304),
    ("COC(=O)[C@@H]1CC[C@@H](C)[C@H](c2ccc(Br)cc2)N1", 0.303),
    ("O=c1n(-c2ccccc2)c(=O)n2n1CC[C@@H]1C(=NOCc3ccccc3)[C@H]3O[C@H]3[C@@H](O)[C@@H]12", -0.557),
    ("O=C1[C@H]2[C@H]3[C@H](O)[C@H](O)CC(=NOCc4ccccc4)[C@H]3CC[C@H]2C(=O)N1Cc1ccc2c(c1)OCO2", -0.437),
    ("O=C1C[C@@H](O)[C@@H](O)[C@@H]2[C@@H]3C(=O)N(Cc4ccccc4)C(=O)[C@@H]3CC[C@@H]12", 0.328),
    ("CCc1cc2c(nc1CC)CCN(CCC(C)=NOC[C@H]1O[C@H](c3ccccc3)C=C[C@@H]1Oc1ccc(OC)cc1)C2", -1.63),
    ("COC(=O)CC=C[C@@H](C)[C@@H](C=NOC(C)CN1CCCc2nc(C)c(C)cc21)OC (some centres not stated)", 0.004),
    ("CCOC(=O)CCN1C(=O)[C@H]2[C@H]3[C@H](O)[C@H](O)CC(=NNC(=O)OCc4ccccc4)[C@@H]3CC[C@H]2C1=O", -0.597),
    ("O=C1C[C@@H](O)[C@@H](O)[C@@H]2[C@@H]3C(=O)N(Cc4ccc5c(c4)OCO5)C(=O)[C@@H]3CC[C@H]12", 1.57),
    ("O=C(NN=C1C[C@@H](O)[C@@H](O)[C@@H]2[C@@H]3C(=O)N(C4CCCCC4)C(=O)[C@@H]3CC[C@@H]12)OCc1ccccc1", -0.321),
]

* * *

Reported composite z-score by item:
- assayed system: Neurogenic locus notch homolog protein 3 (Homo sapiens) (UniProt Q9UM47)
- Sequence (Q9UM47 whole entry, looked up): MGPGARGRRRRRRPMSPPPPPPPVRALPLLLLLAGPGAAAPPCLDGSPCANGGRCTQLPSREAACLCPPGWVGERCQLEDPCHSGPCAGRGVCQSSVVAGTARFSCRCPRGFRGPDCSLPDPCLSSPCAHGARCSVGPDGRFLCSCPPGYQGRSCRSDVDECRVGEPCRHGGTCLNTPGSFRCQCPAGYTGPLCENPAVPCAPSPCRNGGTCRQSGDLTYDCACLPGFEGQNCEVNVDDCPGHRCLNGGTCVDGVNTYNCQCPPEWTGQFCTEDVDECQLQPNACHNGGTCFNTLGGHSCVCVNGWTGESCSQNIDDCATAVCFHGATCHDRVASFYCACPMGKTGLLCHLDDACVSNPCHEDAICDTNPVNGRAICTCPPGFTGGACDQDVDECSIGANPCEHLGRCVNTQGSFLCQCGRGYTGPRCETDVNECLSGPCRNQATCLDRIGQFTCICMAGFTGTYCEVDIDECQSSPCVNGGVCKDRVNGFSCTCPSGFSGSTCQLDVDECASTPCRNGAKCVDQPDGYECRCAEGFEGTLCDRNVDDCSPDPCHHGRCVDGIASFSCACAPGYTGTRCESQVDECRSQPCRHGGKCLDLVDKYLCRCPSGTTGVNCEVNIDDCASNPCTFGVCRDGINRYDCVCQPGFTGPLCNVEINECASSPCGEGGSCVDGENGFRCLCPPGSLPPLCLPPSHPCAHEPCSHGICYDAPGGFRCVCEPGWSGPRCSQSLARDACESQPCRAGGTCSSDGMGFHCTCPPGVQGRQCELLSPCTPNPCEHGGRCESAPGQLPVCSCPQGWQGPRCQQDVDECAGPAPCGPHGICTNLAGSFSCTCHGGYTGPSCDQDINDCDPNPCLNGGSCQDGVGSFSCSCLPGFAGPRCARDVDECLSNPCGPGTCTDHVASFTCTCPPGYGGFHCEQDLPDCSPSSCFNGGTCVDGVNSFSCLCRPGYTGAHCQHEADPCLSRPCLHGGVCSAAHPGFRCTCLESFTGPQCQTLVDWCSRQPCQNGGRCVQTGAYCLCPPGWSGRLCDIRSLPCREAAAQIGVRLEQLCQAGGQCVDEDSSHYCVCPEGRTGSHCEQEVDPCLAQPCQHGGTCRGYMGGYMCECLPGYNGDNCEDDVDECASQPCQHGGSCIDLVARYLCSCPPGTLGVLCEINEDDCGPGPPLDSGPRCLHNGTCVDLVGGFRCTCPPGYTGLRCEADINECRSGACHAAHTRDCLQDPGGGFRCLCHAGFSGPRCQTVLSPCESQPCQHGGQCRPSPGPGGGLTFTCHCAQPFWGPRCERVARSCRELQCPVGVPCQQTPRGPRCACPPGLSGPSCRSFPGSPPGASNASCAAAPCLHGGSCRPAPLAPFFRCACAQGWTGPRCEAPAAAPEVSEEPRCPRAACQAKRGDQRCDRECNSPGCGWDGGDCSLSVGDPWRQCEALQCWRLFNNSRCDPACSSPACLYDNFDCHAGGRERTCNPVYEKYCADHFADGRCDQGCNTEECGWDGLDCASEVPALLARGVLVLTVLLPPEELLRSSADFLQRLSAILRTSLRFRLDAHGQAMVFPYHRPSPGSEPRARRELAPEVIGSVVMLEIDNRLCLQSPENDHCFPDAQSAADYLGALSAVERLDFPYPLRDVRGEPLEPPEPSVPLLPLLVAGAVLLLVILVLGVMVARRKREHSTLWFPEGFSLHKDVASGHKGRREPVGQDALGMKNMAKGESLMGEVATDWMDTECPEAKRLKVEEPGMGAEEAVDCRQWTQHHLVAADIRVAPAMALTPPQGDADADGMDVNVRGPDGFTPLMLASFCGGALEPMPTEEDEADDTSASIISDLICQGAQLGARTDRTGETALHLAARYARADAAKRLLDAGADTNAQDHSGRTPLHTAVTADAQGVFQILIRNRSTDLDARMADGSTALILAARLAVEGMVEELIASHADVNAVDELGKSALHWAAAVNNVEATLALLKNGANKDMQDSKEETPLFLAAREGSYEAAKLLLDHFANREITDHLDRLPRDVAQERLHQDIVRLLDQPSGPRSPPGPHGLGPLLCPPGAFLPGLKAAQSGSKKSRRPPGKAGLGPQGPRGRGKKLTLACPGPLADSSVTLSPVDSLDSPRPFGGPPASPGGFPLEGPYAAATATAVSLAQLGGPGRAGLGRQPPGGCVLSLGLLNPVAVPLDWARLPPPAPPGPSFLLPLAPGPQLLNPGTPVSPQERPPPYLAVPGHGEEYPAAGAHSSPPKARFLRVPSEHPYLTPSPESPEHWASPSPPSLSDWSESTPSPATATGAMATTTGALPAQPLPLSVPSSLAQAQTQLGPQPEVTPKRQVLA
- test description: NOTCH3 binders on small-molecule microarray, primary screen, biochemical, 635/667 nm fluorescence (AID 1096)
- experimental setup: NOTCH3 binding, 635 nm fluorescence, higher = more signal

# compound, composite z-score
rows = [
    ("COc1ccc(C#C[C@@H]2C=C[C@H](OC(C)=O)[C@@H](COC(C)=O)O2)cc1", 0.493),
    ("CCOC(=O)[C@H](Cc1ccccc1)NC(=O)CCC1CC(OC(=O)NCc2cccc3ccccc23)CC2(CCCC(COC(=O)NCC(c3ccccc3)c3ccccc3)O2)O1 (some centres not stated)", 0.851),
    ("CCOC(=O)[C@H](CC(C)C)NC(=O)CCC1CC(OC(=O)NCCc2ccc(F)cc2)CC2(CCCC(COC(=O)NCCc3ccccc3OC)O2)O1 (some centres not stated)", 1.12),
    ("O=C1[C@H]2[C@H]3[C@H](O)[C@H](O)CC(=NOC[C@@H](O)COCc4ccco4)[C@@H]3CC[C@H]2C(=O)N1C[C@@H]1CCCO1", 0.395),
    ("CCOC(=O)NN=C1C[C@@H](O)[C@@H](O)[C@@H]2[C@@H]3C(=O)N(C(C)(C)C)C(=O)[C@@H]3CC[C@H]12", 0.235),
    ("CCc1cc2c(nc1CC)CCN(CCC(C)=NO[C@H](C)c1cn([C@@H]3COC[C@H]3O)nn1)C2", 0.551),
    ("O=C1C[C@@H](O)[C@@H](O)[C@@H]2[C@@H]3C(=O)N(C[C@@H]4CCCO4)C(=O)[C@@H]3CC[C@H]12", 0.652),
]

* * *

- test description: E. coli acrAB mutant growth effects, primary screen, E. coli filamentation inducers, strain DRC39, OD650, 48 h (AID 1179);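 also: screen aims at cell division blockers that make cells filament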
- experimental setup: E. coli DRC39 delta-acrAB growth, higher = more signal, called active from +8 up or from −8 down
Mark FALSE for z-score values under -0.6, and TRUE for everything at or above.

# compound, category label
rows = [
    ("O=C1C[C@@H](O)[C@@H](O)[C@@H]2[C@@H]3C(=O)N(Cc4ccc5c(c4)OCO5)C(=O)[C@@H]3CC[C@H]12", "TRUE"),
    ("COC(=O)C=CCCc1coc(C=CCNC(=O)OC)n1", "TRUE"),
    ("C#CCCCON=C1C[C@@H](O)[C@@H](O)[C@@H]2[C@@H]3C(=O)N(c4ccc(F)cc4F)C(=O)[C@@H]3CC[C@H]12", "TRUE"),
    ("CCOC(=O)[C@H](Cc1ccccc1)NC(=O)CCC1CC(OC(=O)NCc2cccc3ccccc23)CC2(CCCC(COC(=O)NCCC(C)C)O2)O1 (some centres undefined)", "TRUE"),
    ("CC(C)(C)N1C(=O)[C@H]2[C@H]3[C@H](O)C=CC(=O)[C@@H]3CC[C@H]2C1=O", "TRUE"),
    ("CC(CCN1CCc2nc(-c3ccccc3)c(-c3ccccc3)cc2C1)=NOC[C@@H](O)COCc1ccco1", "TRUE"),
    ("C=CC[C@@H]1C=C[C@H](ON=C2[C@H]3CCn4c(=O)n(-c5ccccc5)c(=O)n4[C@H]3[C@H](O)[C@@H]3O[C@H]23)[C@@H](CO)O1", "TRUE"),
    ("CCCNC(=O)OC[C@H]1O[C@H](CCON=C(C)CCN2CCc3nc(CC)c(CC)cc3C2)C=C[C@@H]1Oc1ccc(OC)cc1", "FALSE"),
    ("O=C1[C@H]2[C@H]3[C@H](O)[C@H](O)CC(=NOCc4ccccc4)[C@@H]3CC[C@H]2C(=O)N1c1ccc(F)cc1F", "FALSE"),
    ("CCOC(=O)[C@H](Cc1ccccc1)NC(=O)CCC1CC(OC(=O)NCCc2ccc(F)cc2)CC2(CCCC(COC(=O)NCCc3ccccc3OC)O2)O1 (some centres undefined)", "FALSE"),
    ("CC(C)(C)N1C(=O)[C@H]2[C@H]3[C@H](O)[C@H](O)CC(=O)[C@@H]3CC[C@H]2C1=O", "FALSE"),
    ("COC(=O)[C@@H]1CC[C@H](C)[C@@H](c2ccc(C)cc2)N1C(=O)c1ccc(C=NOCC[C@@H]2C=C[C@H](OC(C)=O)[C@@H](COC(C)=O)O2)cc1", "FALSE"),
    ("CC(C)(C)N1C(=O)[C@H]2[C@H]3[C@H](O)[C@H](O)CC(=O)[C@H]3CC[C@H]2C1=O", "FALSE"),
    ("COC(=O)[C@@H]1CC[C@H](C)[C@@H](c2ccc(C)cc2)N1C(=O)c1ccc(C=NOC[C@@H](C)[C@H](OCc2ccccc2)C(C)C)cc1", "FALSE"),
    ("COc1ccc(O[C@H]2C=C[C@@H](c3ccccc3)O[C@@H]2COC(=O)CCC(C)=NOC(C)CN2CCCc3nc(C)c(C)cc32)cc1 (some centres undefined)", "TRUE"),
    ("COC(=O)[C@@H]1CC[C@H](C)[C@@H](c2ccc(C)cc2)N1C(=O)c1ccc(C=NO[C@@H](C)c2cn([C@H](CO)Cc3ccccc3)nn2)cc1", "TRUE"),
    ("CC(C)=CCCC(C)=CCON=C1C[C@@H](O)[C@@H](O)[C@@H]2[C@@H]3C(=O)N(C(C)(C)C)C(=O)[C@@H]3CC[C@@H]12", "FALSE"),
    ("COC(=O)[C@H](C)NC(=O)CCC1CC(OC(=O)NCc2ccc3c(c2)OCO3)CC2(CCCC(COC(=O)NCC(c3ccccc3)c3ccccc3)O2)O1 (some centres undefined)", "TRUE"),
    ("CO[C@@H]1COC(=O)[C@H](CCSC)NC(=O)CC=C[C@@H](C)COC(=O)[C@H](C)NC(=O)CC=C[C@H]1C", "TRUE"),
    ("O=C1C=C[C@@H](O)[C@@H]2[C@@H]3C(=O)N(C[C@@H]4CCCO4)C(=O)[C@@H]3CC[C@@H]12", "TRUE"),
    ("CC(CCN1CCCc2nc(C)c(C)cc21)=NOC(C)CN1CCCCc2nc(C)c(C)cc21 (centres undefined)", "TRUE"),
    ("CO[C@H]1COC(=O)CCC[C@@H](C)[C@H](OC)COC(=O)[C@@H](C)NC(=O)CC=C[C@@H]1C", "TRUE"),
    ("CCOC(=O)[C@H](CC(C)C)NC(=O)CCC1CC(OC(=O)NCCc2ccc(F)cc2)CC2(CCCC(COC(=O)NCCc3ccccc3OC)O2)O1 (some centres undefined)", "TRUE"),
]
